// provenance: the PETadex activity labels (doi:10.1038/s41586-022-04599-z)

substrate: PET; test: Proxy for plastic degradation [Released monomer concentration (HPLC/LC-MS) (MHET+TPA)]; details: pH 8; 30 °C; part of the chain shown
Outcome measure: Proxy for plastic degradation (mM)

Protein: unnamed (protein) QTNPYARGPNPTAASLEASAGPFTVRSFTVSRPSGYGAGTVYYPTNAGGTVGAIAIVPGYTARQSSIKWWGPRLASHGFVVITIDTNSTLDQPESRSSQQMAALRQVASLNGTSSSPIYGKVDTARMGVMGWSMGGGGSLISAANNPSLKAAAPQAPWHSSTNFSSVTVPTLIFACENDSIAPVNSSALPIYDSMSRNAKQFLEINGGSHSCANSGNSNQALIGKKGVAWMKRFMDNDTRYSTFACENPNSTAVSDFRTANCSLEHHHHHH
Outcome measure: Proxy for plastic degradation
Number: 2.9

Protein: unnamed (protein) QTNPYARGPNPTAASLEASAGPFTVRSFTVSRPSGYGAGTVYYPTNAGGTVGAIAIVPGYTARQSSIKWWGPRLASHGFVVITIDTNSTLDQPSSRSSQQMAALRQVASLNGTSSSPIYGKVDTARMGVMGWSMGGGGSLISAANNPSLKAAAPQAPWDSSTNFSSVTVPTLIFACENDSIAPVNSSALPIYDSMSRNAKQFLEINGGSHSCANSGNSNQALIGKKGVAWMKRFMDNDTRYSTFACENPNSTRVSDFRTANCSLEHHHHHH
Outcome measure: Proxy for plastic degradation
Number: 0.6

Protein: unnamed (protein) QTNPYARGPNPTAASLEASAGPFTVRSFTVSRPSGYGAGTVYYPTNAGGTVGAIAIVPGYTARQSSIKWWGPRLASHGFVVITIDTNSTLDQPESRSSQQMAALRQVASLNGTSSSPIYGKVDTARMGVMGWSMGGGGSLISAANNPSLKAAAPQAPWHSSTNFSSVTVPTLIFACENDSIAPVNSSALPIYDSMSQNAKQFLEIKGGSHSCANSGNSNQALIGKKGVAWMKRFMDNDTRYSTFACENPNSTAVSDFRTANCSLEHHHHHH
Outcome measure: Proxy for plastic degradation
Number: 3.6

Protein: unnamed (protein) QTNPYARGPNPTAASLEASAGPFTVRSFTVSRPSGYGAGTVYYPTNAGGTVGAIAIVPGYTARQSSIKWWGPRLASHGFVVITIDTNSTFDYPSSRSSQQMAALRQVASLNGDSSSPIYGKVDTARMGVMGHSMGGGASLRSAANNPSLKAAIPQAPWDSQTNFSSVTVPTLIFACENDSIAPVNSHALPIYDSMSRNAKQFLEINGGSHSCANSGNSNQALIGKKGVAWMKRFMDNDTRYSTFACENPNSTAVSDFRTANCSLEHHHHHH
Outcome measure: Proxy for plastic degradation
Number: 0.15
